Target: Plasmepsin II (Plasmodium falciparum, UniProt P46925)
Sequence (P46925 whole entry): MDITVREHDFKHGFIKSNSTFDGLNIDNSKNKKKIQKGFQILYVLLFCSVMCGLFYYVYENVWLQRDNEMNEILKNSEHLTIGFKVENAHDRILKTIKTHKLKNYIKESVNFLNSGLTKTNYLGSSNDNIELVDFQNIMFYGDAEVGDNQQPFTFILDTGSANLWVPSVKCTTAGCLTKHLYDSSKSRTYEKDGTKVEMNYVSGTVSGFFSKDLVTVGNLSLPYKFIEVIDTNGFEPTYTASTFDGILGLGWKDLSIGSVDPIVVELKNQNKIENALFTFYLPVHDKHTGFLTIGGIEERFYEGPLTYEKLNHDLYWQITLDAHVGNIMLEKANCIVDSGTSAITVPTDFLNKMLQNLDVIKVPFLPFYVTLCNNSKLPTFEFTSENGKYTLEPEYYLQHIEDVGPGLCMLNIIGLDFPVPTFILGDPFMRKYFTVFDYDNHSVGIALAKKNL
Assay: Inhibition of Plasmodium falciparum plasmepsin 2 using Dabcyl-ERNIef:LSFP-EDANS as substrate incubated for 40 mins by FRET assay
pIC50: −log10 of the molar value.
value_type: pIC50

### Prompt pIC50 lookup needed for O=C(C1=C(c2ccc(CCCOc3cc(F)ccc3Br)cc2)CCNC1)N(Cc1ccccc1Cl)C1CC1 , thanks.
### Response > 7.00

### Prompt pIC50 lookup needed for CC(=O)N1CC2CC(c3ccc(CCOc4ccccc4C(C)(C)C)cc3)=C(C(=O)N(C)CCc3ccccc3)C(C1)N2 (stereo not drawn) , thanks.
### Response 7.00 to 8.00

### Prompt pIC50 lookup needed for CC(=O)N1CC2CC(c3ccc(CCOc4cc(Cl)cc(Cl)c4)cc3)=C(C(=O)N(C)CCc3ccccc3)C(C1)N2 (stereo not drawn) , thanks.
### Response 7.00 to 8.00
